study_system: recombinant HA subtype H2 (A/Swine/MO/06 (H2N3)) (influenza A virus)
test_summary: ELISA, rHA coated
Attribute: EC50

Answered cases to consult:
binder	EC50
Antibody 5 (antibody, V domains shown) VH: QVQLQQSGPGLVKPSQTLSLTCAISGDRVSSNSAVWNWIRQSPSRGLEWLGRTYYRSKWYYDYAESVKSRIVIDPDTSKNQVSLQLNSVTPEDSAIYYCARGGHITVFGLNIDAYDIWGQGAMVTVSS VL: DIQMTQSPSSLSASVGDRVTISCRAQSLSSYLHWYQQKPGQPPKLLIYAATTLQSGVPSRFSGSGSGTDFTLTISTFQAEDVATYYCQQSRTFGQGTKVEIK	0.048 µg/mL
Antibody 10 (antibody, V domains shown) VH: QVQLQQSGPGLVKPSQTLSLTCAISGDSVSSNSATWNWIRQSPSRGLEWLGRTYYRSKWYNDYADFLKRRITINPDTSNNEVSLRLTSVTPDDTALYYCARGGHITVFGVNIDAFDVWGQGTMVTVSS VL: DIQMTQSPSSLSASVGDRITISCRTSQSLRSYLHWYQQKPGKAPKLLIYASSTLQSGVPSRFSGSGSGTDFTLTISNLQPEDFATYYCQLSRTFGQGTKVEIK	0.075 µg/mL
Antibody 6 (antibody, V domains shown) VH: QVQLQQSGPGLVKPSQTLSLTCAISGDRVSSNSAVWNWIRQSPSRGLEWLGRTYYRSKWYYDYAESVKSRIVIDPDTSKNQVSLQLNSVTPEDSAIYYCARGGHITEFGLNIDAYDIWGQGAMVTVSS VL: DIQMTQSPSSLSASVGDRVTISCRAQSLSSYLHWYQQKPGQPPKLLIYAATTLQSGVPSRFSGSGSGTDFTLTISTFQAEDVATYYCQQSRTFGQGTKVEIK	0.213 µg/mL

Proceed to the following item.
-- ask Query (binder): Antibody 8 (antibody, V domains shown) VH: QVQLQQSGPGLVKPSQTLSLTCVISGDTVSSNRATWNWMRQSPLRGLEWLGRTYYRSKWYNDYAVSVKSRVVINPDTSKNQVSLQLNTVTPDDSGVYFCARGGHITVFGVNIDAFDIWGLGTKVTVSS VL: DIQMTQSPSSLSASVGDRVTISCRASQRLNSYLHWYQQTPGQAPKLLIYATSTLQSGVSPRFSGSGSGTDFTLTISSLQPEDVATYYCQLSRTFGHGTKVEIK ; field requested: EC50
-- reply 0.058 µg/mL
